Tested on: K4 kissing-loop RNA reporter
Measurement Notes: apparent KD of K4 kissing-loop reporter; higher = weaker reporter binding
Reported Conditions: Eterna round: R107; input ligand: tryptophan 2.4 mM
Kindly return True if reported apparent KD of K4 kissing-loop reporter is no lower than 200 nM; return False if it is lower.

The following sequences have reported results that may help.
AAGGGCUAGGCGGCCGCCACUGGUCGUGUACACAUACAGACCAGUGAUGUUGGUAUUGUAUGCGACAGGACCGGGCCUAGCCCAA [Exclusion - Tryptophan B (Freestyle 29)]; True
UGGAGUUGACGAAAAGUCAACUCCUGGGAAGGAGCGGACGAAAGUCCAGGUAGGUCGCCCACUACCAGUGAUGUUGGUACUCAAA; False
CGCAGUGAUGUUGCGAAUAUAAUUACGGAAGGAGCGCGUGAAAACGCAGGUAGGUCGCCGUUUGGUAUGAUGGAAACAUCGUACC [Arginine A K4 10]; False
AAGUGAUGUUGUAGUGAUGUUGUGAUGUUGCAGGAUAUAUAGUGAUGUAGAAGGGUAUGUGCAGUUUUCUUAUUUGAGUGUUGAU [zwzamullin]; False
AUUUUGGUUUAGAGUGAUGUUCCUUGUAUUCGAGGACCGGUACGGCCGCCACUCGGAUAGAAAAGAAAAGAAAUGUUUGAUUUUU [BDazzled - #8 SS Tryptophan A]; True

In plain terms: is recorded apparent KD of K4 kissing-loop reporter at least 200 nM for AAAAUAAUCCAGUGAUGUUGGUAUCCAGAUACCAGCCAGGAAACUGGCCCUUGGCAGCUGGCGACGUACAAAAUAAGUACGUCGU [#OpenEnded 11 #StaticStem #K4Early] ?
True

Quick check: does CCGAUACAUUAUUCUACGGCCGAGAGCGAUACCAGCCAAAUUUAUGGCCCUUGGCAGCGCAGAUGCAGUGAUGUUGCAUACAUAC [Same State Theophylline A GF 18] have apparent KD of K4 kissing-loop reporter greater than or equal to 200 nM?
False

Hi team, for GGAUAGGAUAGAGGAUAUGGUUUAUGCAGAAAUAACUUAUUGUGUAAAUCCAUAGGGAGUGAUGUUCCAGAAGGCUGUCCUAUCG [MatMod 15 - Jieux - Exclusion - FMN B] , is the recorded apparent KD of K4 kissing-loop reporter at or above 200 nM?
False

====

Test system: K4 kissing-loop RNA reporter;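 note: bound reporter read as fluorescence of individual clusters on recovered sequencing chips by microscopy, with normalized cluster intensities fitted with a binding model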
Measurement Notes: apparent KD of K4 kissing-loop reporter; higher = weaker reporter binding
Reported Conditions: Eterna round: R107; input ligand: tryptophan 2.4 mM
Use 100 nM as the dividing line for apparent KD of K4 kissing-loop reporter, with the line itself on the 1 (yes) side and lower values as 0 (no).

GCGCGGCUCAGUGAUGUUGAGCCUCGGAAACGAGGACCGGUACGGCCGCCACUCGUCCGCGCAGCUGAGGCAAAAGCCUCGGCUA [Omei KL Tryp A SS B v2]; 1 (yes)
UUUCUACCGGGAAGGAGCGUGAAUGAUAAUGGAUAUAGUGAUGUUAUAUAUACGAACGAAUCGCAGGUAGGUCGCCCGGAUGACU [SSArgB.T]; 1 (yes)
AGCGUCUGAAGAGGAUAUGACCAGUGAUGUUGGUUACUACCUCAAAUUAGUGUCGCGCCAAAAUCGUCAGAAGGCUUCGGCGCGC [Ussoes]; 0 (no)
AUAAUUAUGACGGCCGCCACUGAGAGUAGUGAUGUUACUCUUUUCCUUUAGUAAUAAUUUUUUAUCAGGACCGGGUUAUUUGAAU [JR_Nu_ExcTryptoB_Sub027]; 0 (no)
GCCGUAGAUUGAAGGAGCGCUAGUAGUGAUGUUGCUUGCACUUCUUGUGUAAGAAGAACCUAGCAGGUAGGUCGCAAUCUACGGC; 1 (yes)
CCUUCUCUUGAUAGUGAUGUUGUCAAGGGCAAGGAUAUCAUCUUAAUGAGAAGGUGUCCUUGAUAACAUGGAGGUCUGAAACAGA [Omei KL FMN A Exc C v7]; 1 (yes)
UAGUUGCCGGUUUGUAGGCUUCGGCAGUGGGAGGAUAUGUUGACCGACAGAAGGCCCAGUGAUGUUGGGCGAUUGGCGGUGAGAU [Antebear]; 1 (yes)
GGUAGCAUGGCGGCCGCCACUCUUCAUUAGUGAUGUUAAUGCCGAGUGCGCUAACUCCAACUGGAGAGGACCGGGCCAUGCUACC; 0 (no)
UACACGACUCGUGUAAACCGAGGUAACAGGCAGGAUAUGUAACGGAACAGAAGGGCCAUGUUGCGUGUCCAGUGAUGUUGGAUGC [Vetedile]; 1 (yes)

Switching to the query record.
Determine whether measured apparent KD of K4 kissing-loop reporter meets or exceeds 100 nM for GCCGUACGCAUGGAUACCAGUCUUUCGCGACUGGACAUGGAGUGAUGUUUCGUGAUGCUAGACCCUUGGCAGCCAUGCGUACGGC
1 (yes)

====

System: MS2 coat protein
Measurement Notes: apparent KD of MS2 coat protein; designed switch direction (-1 OFF switch, 1 ON switch): -1; higher = weaker reporter binding
Reported Conditions: input ligand: none
We use 30 nM as the dividing line for apparent KD of MS2 coat protein: on or above the line is label 1, below is label 0.

CGGCGACAUGAGGAUCACCCAUGUGAGGAUAUGACGGGAAAAGCGUGAGCAGUUUGUAUCAGAAGGCGGGUAGG [salish99_ex1_r4_080] (Eterna round: R97, puzzle: Exclusion 1); label 1
UUAUACAAGCAAAGAUCCCACAUGAGGAUCACCCAUGUGCUCGUCUUAUAAGGUACUGUGACGAUAGUCACGGUACC [Mat - Sensor, turn-off var - Eli Mod - D102] (Eterna round: R97, puzzle: Sensor, turn-off variant 1); label 1
UCGACGUCGUCAGGAUAUAGUCUUAAUGUCAUGCUUUUGUUCGUACAUGAGGAUCACCCAUGUGGCUAGAAGGGACUAAAGAUU [JR_ExcNG2_Sub015] (Eterna round: R96, puzzle: Exclusion NG 2); label 0
CGGUGACGGGUGAGGAUAUCGUGUUCGAAAGAACGUGAGAAGGCACAUGAGGAUCACCCAUGUGAUCCUCAUCG [Omei Ex4B A31] (Eterna round: R97, puzzle: Brourd's mod of Exclusion 4); label 1
UGUGUGAGACAGGAUAUGCCGGAUGAAAUGCAGGUAGAAGGGUCUACAUGAGGAUCACCCAUGUGGCCGGUUGG [Ex6 #75] (Eterna round: R97, puzzle: Exclusion 6); label 0

Say whether CCGCGUGAUUAGGAUAUCAAACUAGCGUGUACAUGAGAAGGGAUCACAUGAGGAUCACCCAUGUAAGGGAUCCU [Eternabot (L1) Solution 69] (Eterna round: R97, puzzle: Exclusion 6) shows apparent KD of MS2 coat protein of 30 nM or more.
label 1

Does the sequence UACCUGAGGCUUUGCUUUAGGCUUACAUGAGGAUCACCCAUGUAGGAUAUGGUAGGCUUUGCUUACCAGAAGGACAUGGUAAUU [JL ENG3 1.07] (Eterna round: R96, puzzle: Exclusion NG 3) have recorded apparent KD of MS2 coat protein that is 30 nM or more?
label 1

====

Test system: MS2 coat protein
Measurement Notes: apparent KD of MS2 coat protein; designed switch direction (-1 OFF switch, 1 ON switch): -1; higher = weaker reporter binding
Reported Conditions: Eterna round: R95; input ligand: FMN 200 uM
Experimental Readout: apparent KD of MS2 coat protein (µM)
Numbers only, in µM.

Solved cases below.
GUAGUGUGAGGAUAUGGUAAAGAUAAGAUGAUGAAAGAACUCCAGAAGGCACAUGAGGAUCACCCAUGUAGAUU [Mat - Exclusion 4 - Mod of JL - D26] (puzzle: Exclusion 4); 0.0498
GAAAAGCUAGGAUAUACAUGAGGAUCACCCAUGUAAGGUCGCUUCUUAUAUAGGGCAUGUAGAAGGAGCAAAGA [Eneriner] (puzzle: Exclusion 3); 0.0706
CUAGUCCGAGGAUAUAUUAAGUGAUACAUGAGGAUCACCCAUGUUAUUUAAUGGAUAUUAAUAGAAGGCGGACUAG [Mat - Exclusion 5 - JL mod - D78] (puzzle: Exclusion 5); 0.0426
AGUACUAACACGAGAGUGUUAGUACUAUAAGCUUGUGUUACAUGAGGAUCACCCAUGUCCUCAUAGGCUCGUCUUAG [Mat - Sensor v3 - Turn-off var 2 - D83] (puzzle: Sensor v3, turn-off variant 2); 0.0804

Dear colleague, could you send me apparent KD of MS2 coat protein for each of the items below? Thanks.
1. AAAAGAGGAGGAUAUGCAAACAAUGUAAAAGUGAAAGUAAAACAUGAGGAUCACCCAUGUAGAAGGCCUGAAAA [nah] (puzzle: Exclusion 2)
2. UAAGAAGGUGUUAGGAUAUGCAGAGCAGGGCUAAGGCAGAAGGGACAUGAGGAUCACCCAUGUGCUACGGGUGC [Enrainbera] (puzzle: Brourd's mod of Exclusion 4)
3. AAGUACCGUCACGAUAGUGAUGGUACAACAAGCAUGUAAACAUGAGGAUCACCCAUGUCCUCAAUUGCUCGUCUUAU [Sensor 3 - 68] (puzzle: Sensor v3, turn-off variant 2)
4. UUUUGUUUUUUAUUUUUUAACAUGAGGAUCACCCAUGUAACGAGCAGAUCUUCAUGCAAGCUUUUUGCUCGUCUUAU [Sensor v3 - Turn-off variant 1 - 42] (puzzle: Sensor v3, turn-off variant 1)
5. GGUACUAACACGAGAGUGUUAGUACUAUAAGCUUGUGUUACAUGAGGAUCACCCAUGUCCUCAUAGGCUCGUCUUAG [Mat - Sensor v3 - Turn-off var 2 - D84] (puzzle: Sensor v3, turn-off variant 2)
6. GAGAAGGUAGGAUAUACGAAUAAAAAGGGUAGAAGAAGAACACAUGAGGAUCACCCAUGUAGAAGGACCAAGAG [Mat - Exclusion 2 - Mod of my Tesla design - D22] (puzzle: Exclusion 2)

1: 0.02; 2: 0.0512; 3: 0.692; 4: 0.0422; 5: 0.0937; 6: 0.044

Value sought for every listed sequence: apparent KD of MS2 coat protein.
1. CUGAGGUAGCGGUCCUAUGACAUGAGGAUCACCCAUGUACCUUGCUUUGAGCAAUUUGCUCGUCUUAUGAUUCUCGG [Mat - Sensor v3 - turn-off var 1 - JL Mod - D46] (puzzle: Sensor v3, turn-off variant 1)
2. AAGUAUAGAGGAUAUAGUAGGUACUACAUGAGGAUCACCCAUGUUCUUCAUUACGUAUUUCUAGAAGGCUGAUAAA [EX-5 Malc#26] (puzzle: Exclusion 5)
3. CAUGGAUGUGAGCCGCAUUACAUGAGGAUCACCCAUGUCAACAAGCUUUUUGCUUGUCUUACGCGGCGACAUCAGAA [Tiquatge] (puzzle: Sensor v3, turn-off variant 1)
4. CCAUCGAGUGUGAGGAUAUGCUGUUCCUAAGAGCAGCAGAAGGCACAUGAGGAUCACCCAUGUGGAUACGGUGG [Mat - Exclusion 4 - JL Mod - D81] (puzzle: Brourd's mod of Exclusion 4)
5. GGUUGACAUGAGGAUCACCCAUGUGAGGAUAUGCGAGAGAAAAAAGUGAGGAAGAAAAGUAGAAGGCGCUGACG [salish99-ex1_r3_001] (puzzle: Exclusion 1)
6. AGUACUAACACGAAAGUGUUAGUACAAUAAGCUUGUGAAACAUGAGGAUCACCCAUGUCCUCCUAAGCUCGUCUUAU [salish99_TOv2_r3_049] (puzzle: Sensor v3, turn-off variant 2)
7. AAAGGUGAGUAGGAUAUCCACGCACGAAUAAAGGGAGAAGGACUUACAUGAGGAUCACCCAUGUAAGGUGGUAA [Orte] (puzzle: Exclusion 6)

0.446
0.484
0.0117
0.172
0.0599
0.0454
0.0171

Reported apparent KD of MS2 coat protein for MS2 coat protein, given AAUAAUAAGGAGGAUAUCGUAUCGGAAACGAUACGAGAAGGCCUAACAUGAGGAUCACCCAUGUUCCUUAAUAA [Fiskers Ex 6 - 4] (puzzle: Exclusion 6) ?
0.0333

Attribution: the supplement of paper PMC9170038
